system: Histone deacetylase
experiment_summary: Inhibition of HDAC in human HeLa nuclear extract using fluoroscence-labeled acetylated peptide as substrate by fluorometric assay
Type: subcellular, Nucleus
I'd appreciate it if you could supply log10(IC50) values for the items below.
Scale type: logarithmic (base 10). Underlying IC50 unit: nM.

Req: Entry COc1ccc2c(c1)/C(=C1/Nc3ccccc3/C1=N\O)C(=O)N2CCCCCCC(=O)NO : reported log10(IC50) = ?
Resp: 1.32

Req: Please report the recorded log10(IC50) for COc1ccc2c(c1)/C(=C1/Nc3ccccc3/C1=N\O)C(=O)N2Cc1ccc(C(=O)NO)cc1 .
Resp: 1.40

Req: Query: log10(IC50); subject: O=C(CCCCCCN1C(=O)/C(=C2\Nc3ccccc3\C2=N/O)c2cc(F)ccc21)NO
Resp: 1.15

Req: Endpoint output: log10(IC50) of O=C(NO)c1ccc(CN2C(=O)/C(=C3\Nc4ccccc4\C3=N/O)c3cccc(Cl)c32)cc1 . Value?
Resp: 1.85

Req: Reported log10(IC50), molecule O=C(/C=C/c1ccc(CN2C(=O)/C(=C3\Nc4ccccc4\C3=N/O)c3ccccc32)cc1)NO : ____
Resp: 1.98

Req: Would you kindly share the measured log10(IC50) for Cc1ccc2c(c1)/C(=C1/Nc3ccccc3/C1=N\O)C(=O)N2Cc1ccc(C(=O)NO)cc1 ?
Resp: 0.70

Req: Which log10(IC50) reading was recorded for the molecule O=C(/C=C/c1ccc(CN2C(=O)/C(=C3\Nc4ccccc4\C3=N/O)c3cccc(Cl)c32)cc1)NO ?
Resp: 2.78

Req: Would you kindly share the measured log10(IC50) for Cc1ccc2c(c1)/C(=C1/Nc3ccccc3/C1=N\O)C(=O)N2Cc1ccc(/C=C/C(=O)NO)cc1 ?
Resp: 1.30

Req: Recorded log10(IC50) of COc1ccc2c(c1)/C(=C1/Nc3ccccc3/C1=N\O)C(=O)N2Cc1ccc(/C=C/C(=O)NO)cc1 , please.
Resp: 0.70
